Entry source: paper PMC8176444

quantityKind: pKi
// field semantics: pKi = negative decimal log of concentration (mol/L)

Task item: Request body: readout pKi, system angiotensin-converting enzyme (ACE) (Ovis aries, UniProt A0ACI6QSL6), query C[C@H](CS)C(=O)N1CCC[C@H]1C(=O)O . Return the value.
Reply: 9.41
